measuredOn: Taq DNA polymerase (Thermus aquaticus) (UniProt P19821)
Sequence (P19821 whole entry): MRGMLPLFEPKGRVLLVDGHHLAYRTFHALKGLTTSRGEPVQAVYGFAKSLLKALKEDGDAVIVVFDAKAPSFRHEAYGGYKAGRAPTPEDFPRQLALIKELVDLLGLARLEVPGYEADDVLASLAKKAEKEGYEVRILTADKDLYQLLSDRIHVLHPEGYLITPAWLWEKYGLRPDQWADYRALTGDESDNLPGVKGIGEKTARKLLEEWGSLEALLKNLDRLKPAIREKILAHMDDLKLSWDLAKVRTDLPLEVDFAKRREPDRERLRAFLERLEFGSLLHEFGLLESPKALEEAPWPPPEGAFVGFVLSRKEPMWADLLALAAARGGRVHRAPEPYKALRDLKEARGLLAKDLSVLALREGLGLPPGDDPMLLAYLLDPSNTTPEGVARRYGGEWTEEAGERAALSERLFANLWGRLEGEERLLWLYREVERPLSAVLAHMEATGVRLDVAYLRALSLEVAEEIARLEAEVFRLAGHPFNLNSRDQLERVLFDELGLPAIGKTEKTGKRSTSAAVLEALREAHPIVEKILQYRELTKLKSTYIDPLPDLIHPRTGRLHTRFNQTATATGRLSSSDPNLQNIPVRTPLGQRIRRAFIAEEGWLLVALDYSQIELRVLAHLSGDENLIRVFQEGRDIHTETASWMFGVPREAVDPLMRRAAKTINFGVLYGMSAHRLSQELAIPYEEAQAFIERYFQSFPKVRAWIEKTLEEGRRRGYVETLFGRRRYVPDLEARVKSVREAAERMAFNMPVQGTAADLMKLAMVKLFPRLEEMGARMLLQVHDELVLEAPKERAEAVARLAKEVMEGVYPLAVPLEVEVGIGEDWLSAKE
assayMethodText: FP filter
conditionDescription: Taq binding buffer, room temp
assayMetric: Kd
Answer format: value, then unit.

Quick one: Kd of TTCTCGGTTGGTCTCTGGCGGAGCNNNNNNNNNNNNNNNNNNNNNNNNNNNNNNTCTTGTGTATGATTCGCTTTTCCC [enriched Taq pool round 12] ?
3.5 nM

###

measuredOn: Taq DNA polymerase (Thermus aquaticus) (UniProt P19821)
assayMethodText: FP filter
conditionDescription: cross binding, saturates at about 50%
assayMetric: pKd
Note: pKd values are expressed as the negative base-10 logarithm of concentration in M.

Quick one: pKd of TTCTCGGTTGGTCTCTGGCGGAGCNNNNNNNNNNNNNNNNNNNNNNNNNNNNNNTCTTGTGTATGATTCGCTTTTCCC [enriched Tth pool round 10] ?
9.52

These measurements were taken from patent US6183967.
